target: Histamine H4 receptor (Homo sapiens); assay: Displacement of [3H]histamine from human histamine H4 receptor expressed in HEK cells; format: cell-based, HEK293; details: read-out: Ki
Sequence (Q9H3N8 whole entry): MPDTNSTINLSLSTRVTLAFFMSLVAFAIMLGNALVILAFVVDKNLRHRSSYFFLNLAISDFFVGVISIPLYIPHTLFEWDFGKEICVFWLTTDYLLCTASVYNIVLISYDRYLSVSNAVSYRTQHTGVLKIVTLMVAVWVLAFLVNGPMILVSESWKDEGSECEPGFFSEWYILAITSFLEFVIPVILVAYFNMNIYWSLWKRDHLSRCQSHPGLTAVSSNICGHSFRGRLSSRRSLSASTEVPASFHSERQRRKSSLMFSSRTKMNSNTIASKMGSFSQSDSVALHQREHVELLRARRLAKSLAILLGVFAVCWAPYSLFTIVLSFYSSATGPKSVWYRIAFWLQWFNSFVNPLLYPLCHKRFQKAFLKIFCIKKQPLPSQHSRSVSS
pKi: −log10 of the molar value.
readout: pKi

[ask] Kindly state the measured pKi obtained for CN[C@@H](C(=O)N(C)[C@H]1CC[C@@]2(C)C(=CC[C@H]3[C@@H]4CC[C@@H]5[C@H](C)N(C)C[C@@]54CC[C@@H]32)C1)C(C)C with Histamine H4 receptor (Homo sapiens).
[reply] < 5.00

====

Target: Glucocorticoid receptor (Homo sapiens, UniProt P04150)
Sequence (P04150 whole entry): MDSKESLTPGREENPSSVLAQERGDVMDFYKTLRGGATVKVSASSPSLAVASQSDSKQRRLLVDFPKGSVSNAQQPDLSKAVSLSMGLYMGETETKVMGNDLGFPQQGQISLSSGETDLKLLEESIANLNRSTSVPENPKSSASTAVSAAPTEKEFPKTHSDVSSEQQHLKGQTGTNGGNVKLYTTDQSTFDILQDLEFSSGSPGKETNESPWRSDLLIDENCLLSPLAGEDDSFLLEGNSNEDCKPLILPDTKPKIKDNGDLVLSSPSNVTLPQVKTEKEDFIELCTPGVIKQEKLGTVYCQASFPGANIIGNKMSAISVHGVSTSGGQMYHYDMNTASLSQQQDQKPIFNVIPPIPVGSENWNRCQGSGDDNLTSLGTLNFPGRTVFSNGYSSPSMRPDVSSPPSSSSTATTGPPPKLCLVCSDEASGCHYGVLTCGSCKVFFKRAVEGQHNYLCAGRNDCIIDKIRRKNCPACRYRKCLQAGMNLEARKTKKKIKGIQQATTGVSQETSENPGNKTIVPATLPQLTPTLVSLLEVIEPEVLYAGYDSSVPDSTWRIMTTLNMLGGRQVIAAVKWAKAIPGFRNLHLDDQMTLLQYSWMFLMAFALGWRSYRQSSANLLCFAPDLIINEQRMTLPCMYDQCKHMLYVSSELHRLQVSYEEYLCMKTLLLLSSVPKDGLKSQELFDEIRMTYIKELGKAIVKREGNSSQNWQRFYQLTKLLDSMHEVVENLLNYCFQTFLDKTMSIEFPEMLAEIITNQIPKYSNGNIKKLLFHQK
readout: Ki

[ask] So what's the measured Ki for this one? CN[C@@H](C(=O)N(C)[C@H]1CC[C@@]2(C)C(=CC[C@H]3[C@@H]4CC[C@@H]5[C@H](C)N(C)C[C@@]54CC[C@@H]32)C1)C(C)C
[reply] > 30 µM

====

Target: Muscarinic acetylcholine receptor M1 (Homo sapiens)
Sequence (P11229 whole entry): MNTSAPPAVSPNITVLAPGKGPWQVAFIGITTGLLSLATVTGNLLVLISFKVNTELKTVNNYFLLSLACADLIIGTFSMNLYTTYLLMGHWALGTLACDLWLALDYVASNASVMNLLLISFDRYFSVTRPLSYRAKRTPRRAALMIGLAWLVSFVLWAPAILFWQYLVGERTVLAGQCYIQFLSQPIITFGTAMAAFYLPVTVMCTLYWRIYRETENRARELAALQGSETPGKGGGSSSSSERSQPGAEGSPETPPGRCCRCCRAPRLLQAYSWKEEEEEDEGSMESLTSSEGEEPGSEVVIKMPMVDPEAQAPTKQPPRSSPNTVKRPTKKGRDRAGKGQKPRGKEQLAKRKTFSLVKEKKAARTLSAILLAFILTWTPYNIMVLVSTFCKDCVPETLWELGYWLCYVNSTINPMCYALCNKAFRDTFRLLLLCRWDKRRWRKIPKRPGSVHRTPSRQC
readout: Ki (nM)
Dear colleague, please return just the value in nM, with no unit written.

[ask] So what's the measured Ki for this one? CN[C@@H](C(=O)N(C)[C@H]1CC[C@@]2(C)C(=CC[C@H]3[C@@H]4CC[C@@H]5[C@H](C)N(C)C[C@@]54CC[C@@H]32)C1)C(C)C
[reply] 11
